target: human RXFP1 (Homo sapiens); test: RXFP1 cyclic adenosine monophosphate (cAMP) assay, hRXFP1 HEK293; conditions: HEK293 cells stably expressing human RXFP1; 30 min at room temperature; HTRF cAMP
assay-endpoint: EC50 (nM)

1 = COc1ccc(C#CCO)cc1C(=O)Nc1cc2c(cc1C(=O)Nc1ccc(F)c(C(F)(F)F)c1)OC(F)(F)O2
2 = COc1ccc(C2=NOC3COCC23)cc1C(=O)Nc1cc2nc(C)sc2cc1C(=O)Nc1ccc(F)c(C(F)(F)F)c1 (single isomer, unassigned) [Example 2]
3 = COCC1CC(c2ccc(OC)c(C(=O)Nc3cc4c(cc3C(=O)Nc3ccc(F)c(C(F)(F)F)c3)OC(F)(F)O4)c2)=NO1 (stereo not shown)
4 = COc1ccc(-c2cc([C@H](C)O)on2)cc1C(=O)Nc1cc2c(cc1C(=O)Nc1ccc(F)c(C(F)(F)F)c1)OC(F)(F)O2
Sequence the entries by EC50, beginning with the highest number. Reply: labels, ordered per the request.
2, 3, 4, 1
(2: 1000 nM, 3: 399 nM, 4: 96 nM, 1: 41 nM)

----------
molecular target: human RXFP1 (Homo sapiens, UniProt Q9HBX9); assay: RXFP1 cyclic adenosine monophosphate (cAMP) assay, hRXFP1 HEK293; settings: HEK293 cells stably expressing human RXFP1; 30 min at room temperature; HTRF cAMP
Sequence (Q9HBX9 whole entry): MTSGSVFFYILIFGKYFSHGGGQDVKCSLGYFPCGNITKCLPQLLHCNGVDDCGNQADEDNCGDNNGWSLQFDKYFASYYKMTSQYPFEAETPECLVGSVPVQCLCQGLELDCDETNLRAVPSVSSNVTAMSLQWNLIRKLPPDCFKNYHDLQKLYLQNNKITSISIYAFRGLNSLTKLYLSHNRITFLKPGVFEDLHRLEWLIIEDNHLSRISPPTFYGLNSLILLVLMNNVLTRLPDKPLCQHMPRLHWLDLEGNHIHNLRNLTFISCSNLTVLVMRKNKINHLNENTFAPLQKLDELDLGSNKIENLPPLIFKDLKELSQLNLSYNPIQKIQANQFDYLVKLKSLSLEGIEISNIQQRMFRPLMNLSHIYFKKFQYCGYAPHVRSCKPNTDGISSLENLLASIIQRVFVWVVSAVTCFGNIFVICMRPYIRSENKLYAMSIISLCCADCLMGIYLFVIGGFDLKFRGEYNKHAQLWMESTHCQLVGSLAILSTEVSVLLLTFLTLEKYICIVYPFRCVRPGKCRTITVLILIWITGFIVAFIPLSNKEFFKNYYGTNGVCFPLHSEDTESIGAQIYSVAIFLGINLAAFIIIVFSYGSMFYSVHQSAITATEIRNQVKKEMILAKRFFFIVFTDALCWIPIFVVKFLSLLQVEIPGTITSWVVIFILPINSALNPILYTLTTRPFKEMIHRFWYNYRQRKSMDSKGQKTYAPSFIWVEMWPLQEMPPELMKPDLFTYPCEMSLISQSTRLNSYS
assay-endpoint: EC50 (nM)

compound | measurement-target | EC50 (nM)
COc1ccc(C#CC(C)(C)O)cc1C(=O)Nc1cc2c(cc1C(=O)Nc1ccc(F)c(C(F)(F)F)c1)OC(F)(F)O2 | human RXFP1 (Homo sapiens, UniProt Q9HBX9) | 1060
COc1ccc(C2=NOC3C4CCC(C4)C23)cc1C(=O)Nc1cc2nc(C)sc2cc1C(=O)Nc1ccc(F)c(C(F)(F)F)c1 (stereo not drawn) | human RXFP1 (Homo sapiens, UniProt Q9HBX9) | 130
COc1ccc(-c2cc([C@H](OC(=O)NC3CCC3)C(F)(F)F)ccc2F)cc1C(=O)Nc1cc2c(C)noc2cc1C(=O)Nc1ccc(F)c(C(F)(F)F)c1 | human RXFP1 (Homo sapiens, UniProt Q9HBX9) | 18

A = COc1cc(F)c(C(=O)NCC2(S(C)(=O)=O)CC2)cc1C(=O)Nc1cc2c(cc1C(=O)Nc1ccc(F)c(C(F)(F)F)c1)OC(F)(F)O2
B = COc1ccc(C(=O)N2CCCC(CO)C2)cc1C(=O)Nc1cc2c(cc1C(=O)Nc1ccc(F)c(C(F)(F)F)c1)OC(F)(F)O2 (stereo not drawn)
Record comparison, field EC50: mark the lower of A and B . Refer to your chosen entry by its label in the reply.
A

I = COc1ccc(-c2noc(C(C)(C)O)n2)cc1C(=O)Nc1cc2c(cc1C(=O)Nc1ccc(F)c(C(F)(F)F)c1)OC(F)(F)O2
II = COc1ccc(-c2cc(C(=O)Nc3cc[nH]n3)ccc2F)cc1C(=O)Nc1cc2c(cc1C(=O)Nc1ccc(F)c(C(F)(F)F)c1)OC(F)(F)O2
III = COc1ccc(C2=NOC3CC(N)CC23)cc1C(=O)Nc1cc2c(cc1C(=O)Nc1ccc(F)c(C(F)(F)F)c1)OC(F)(F)O2 (single isomer, unassigned)
Could you please sort these 3 entries by EC50 from high to low? Would you mind listing the labels in the order requested?
I, II, III
